tested on: immature mouse uterine growth; test: E2-activated immature mouse uterine growth assay; type: in vivo; parameters: concentration or dose not given beside the values
propertyName: % Inhibition Of Activity: Uterine Growth, Enzymatic Fragments (%)
State just the number; it will be interpreted in %.

Example entries begin here.
AADIIIGHLCIRHE (listed as Homo sapiens) [P149b]    19
MTPVNPGV (listed as Homo sapiens) [P149c]    44
LSEDKLLACGEG (listed as Homo sapiens) [P149a]    24
HPEAKRMPCAEDYLSVVLNQLCVLEHKTPVSDRV (listed as Homo sapiens) [P263, reference compound]    0

Now turn to the next sequence.
Prompt line: Give % Inhibition Of Activity: Uterine Growth, Enzymatic Fragments (immature mouse uterine growth) of the following sequence: KDFIHKQGVALQTMKQELINLVKELVKPQIEAVADFSGLL (listed as Homo sapiens) [P192, reference compound]
Response line: 0

The measurements presented in this section are drawn from patent US20060111289A1.
